Consider the following compounds; for each one, report its IC50.
biological target: PDE4 (Homo sapiens, UniProt Q07343)
Sequence (Q07343 whole entry): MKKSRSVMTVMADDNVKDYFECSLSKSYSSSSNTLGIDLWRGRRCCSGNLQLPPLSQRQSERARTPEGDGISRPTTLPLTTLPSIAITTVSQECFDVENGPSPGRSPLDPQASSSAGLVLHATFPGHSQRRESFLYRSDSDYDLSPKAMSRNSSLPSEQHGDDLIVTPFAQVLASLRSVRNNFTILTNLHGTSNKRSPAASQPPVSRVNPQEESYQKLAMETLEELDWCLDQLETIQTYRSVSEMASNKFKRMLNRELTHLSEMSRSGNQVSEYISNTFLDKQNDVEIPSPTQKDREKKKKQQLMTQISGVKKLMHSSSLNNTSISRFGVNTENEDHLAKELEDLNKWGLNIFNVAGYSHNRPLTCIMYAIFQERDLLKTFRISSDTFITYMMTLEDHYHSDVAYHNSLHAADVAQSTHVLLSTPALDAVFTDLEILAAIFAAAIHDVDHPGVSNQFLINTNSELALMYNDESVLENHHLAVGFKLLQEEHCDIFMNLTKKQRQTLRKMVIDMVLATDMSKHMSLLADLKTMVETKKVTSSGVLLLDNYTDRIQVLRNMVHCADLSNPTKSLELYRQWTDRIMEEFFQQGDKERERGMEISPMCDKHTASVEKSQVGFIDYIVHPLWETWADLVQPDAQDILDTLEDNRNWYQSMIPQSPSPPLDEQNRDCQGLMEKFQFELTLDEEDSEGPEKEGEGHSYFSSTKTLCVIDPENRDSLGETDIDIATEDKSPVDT
Your answer is read as nM, so omit the unit and give the number.

Q: # IC50 lookup, item CCn1nc(C(=O)OC(C)Cc2ccccc2)c(C(C)=O)c(Nc2cncc3ccccc23)c1=O (centres unmarked) [Example 38]
Ans: 13

Q: Same read-out for CCn1nc(C(=O)OCc2cccc(Cl)c2)cc(Nc2cncc3ccccc23)c1=O [Example 13] ?
Ans: 2.9

Q: // next record CCn1nc(C(=O)OCc2ccccc2)c(C(C)=O)c(Nc2cncc3ccccc23)c1=O [Example 33]
Ans: 1.9

Q: Okay, and CCn1nc(C(=O)OC2CCC2)c(C(C)=O)c(Nc2cncc3ccccc23)c1=O [Example 36] ?
Ans: 44

Q: Field entry: CCn1nc(C(=O)OCCOc2ccccc2)cc(Nc2cncc3ccccc23)c1=O [Example 49]
Ans: 0.73
